Target: human CD33 R119A (human, UniProt P20138 18-364)
Sequence (P20138 18-364 R119A limits assumed): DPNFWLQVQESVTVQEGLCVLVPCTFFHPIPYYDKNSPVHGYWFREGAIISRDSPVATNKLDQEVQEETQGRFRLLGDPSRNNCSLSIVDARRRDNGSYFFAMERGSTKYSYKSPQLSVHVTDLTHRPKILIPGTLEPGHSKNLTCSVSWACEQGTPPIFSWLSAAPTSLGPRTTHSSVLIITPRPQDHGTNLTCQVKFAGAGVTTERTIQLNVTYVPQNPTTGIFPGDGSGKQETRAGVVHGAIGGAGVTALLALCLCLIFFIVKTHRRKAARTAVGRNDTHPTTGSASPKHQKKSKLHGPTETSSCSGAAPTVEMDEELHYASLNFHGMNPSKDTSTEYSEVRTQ
Assay: flow cytometry on HEK293-T, alanine scan
outcomeMeasure: Mean % WT Binding (% WT binding)
# unit: % WT binding | format: bare number

[Q] Can you share its Mean % WT Binding? I mean this binder: Refmab #3 (antibody, V domains shown, The alanine scan used IgG or Fab) VH: QVQLVQSGAEVKKPGSSVKVSCKASGYTFTDYNMHWVRQAPGQGLEWIGYIYPYNGGTGYNQKFKSKATITADESTNTAYMELSSLRSEDTAVYYCARGRPAMDYWGQGTLVTVSS VL: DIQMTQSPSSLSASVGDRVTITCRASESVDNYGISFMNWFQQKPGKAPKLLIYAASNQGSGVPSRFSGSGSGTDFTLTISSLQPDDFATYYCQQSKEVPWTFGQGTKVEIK
[A] 1020

Value source: patent US20260242735A1
